Tested on: KRAS patient-derived spheroids with HUVEC/MSC, viability
test summary: Anticancer human tumor 941728-121-R-J1-PDC patient-derived lung adenocarcinoma cell line growth inhibition [KRAS2]
test parameters: second compound 3.16 µM; first compound 0.01 µM; stronger effect = lower value
readout type: viability, T/C (%)
A number alone suffices; assume %.

// query Please look up its viability, T/C: Cn1ncnc1[C@H]1c2n[nH]c(=O)c3cc(F)cc(c23)N[C@@H]1c1ccc(F)cc1 + C=CC(=O)N1CCN(c2nc(=O)n(-c3c(C)ccnc3C(C)C)c3nc(-c4c(O)cccc4F)c(F)cc23)C(C)C1
// result 17.4

// query Query (compound): CN(C)C/C=C/C(=O)Nc1cc2c(Nc3ccc(F)c(Cl)c3)ncnc2cc1O[C@H]1CCOC1 + CC1OCC2(CCN(c3cnc(Sc4ccnc(N)c4Cl)c(N)n3)CC2)C1N ; field requested: viability, T/C
// result 31.6

// query Endpoint output: viability, T/C of CC(=O)OC12COC1CC(O)C1(C)C(=O)C(O)C3=C(C)C(OC(=O)C(O)C(NC(=O)OC(C)(C)C)c4ccccc4)CC(O)(C(OC(=O)c4ccccc4)C21)C3(C)C (centres undefined) + C=CC(=O)N1CCN(c2nc(=O)n(-c3c(C)ccnc3C(C)C)c3nc(-c4c(O)cccc4F)c(F)cc23)C(C)C1 . Value?
// result 16.4

// query What viability, T/C value was documented for this compound, CC(=O)OC12COC1CC(O)C1(C)C(=O)C(O)C3=C(C)C(OC(=O)C(O)C(NC(=O)OC(C)(C)C)c4ccccc4)CC(O)(C(OC(=O)c4ccccc4)C21)C3(C)C (centres undefined) + CC1OCC2(CCN(c3cnc(Sc4ccnc(N)c4Cl)c(N)n3)CC2)C1N ?
// result 24.4

----------
Tested on: KRAS patient-derived spheroids with HUVEC/MSC, viability
test summary: Anticancer human tumor 941728-121-R-J1-PDC cell line growth inhibition [KRAS2];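 also: spheroids exposed to agents for seven days before readout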
test parameters: second compound 10 µM; first compound 0.01 µM; stronger effect = lower value
readout type: viability, T/C (%)
// units = %; emit number, no label

// query Looking for the measured viability, T/C of CC(=O)Nc1cccc(-n2c(=O)n(C3CC3)c(=O)c3c(Nc4ccc(I)cc4F)n(C)c(=O)c(C)c32)c1 + COc1cc2nc(C)nc(NC(C)c3cc(N)cc(C(F)(F)F)c3)c2cc1OC1CCOC1 , can you help?
// result 2.71

// query Requested field: viability, T/C. Item: CCN1CCN(Cc2ccc(Nc3ncc(F)c(-c4cc(F)c5nc(C)n(C(C)C)c5c4)n3)nc2)CC1 + COc1cc2nc(C)nc(NC(C)c3cc(N)cc(C(F)(F)F)c3)c2cc1OC1CCOC1
// result 6.08

// query I'd like to know its viability, T/C. The molecule in question is Cn1ncnc1[C@H]1c2n[nH]c(=O)c3cc(F)cc(c23)N[C@@H]1c1ccc(F)cc1 + COc1cc2nc(C)nc(NC(C)c3cc(N)cc(C(F)(F)F)c3)c2cc1OC1CCOC1
// result 8

----------
System: KRAS patient-derived spheroids with HUVEC/MSC, viability
test summary: Anticancer human tumor 941728-121-R-J1-PDC cell line growth inhibition [KRAS2];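 also: spheroids exposed to agents for seven days before readout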
test parameters: second compound 1 µM; first compound 0.1 µM; stronger effect = lower value
readout type: viability, T/C

// query Given the entry CC(=O)OC12COC1CC(O)C1(C)C(=O)C(O)C3=C(C)C(OC(=O)C(O)C(NC(=O)OC(C)(C)C)c4ccccc4)CC(O)(C(OC(=O)c4ccccc4)C21)C3(C)C (centres undefined) + CC1OCC2(CCN(c3cnc(Sc4ccnc(N)c4Cl)c(N)n3)CC2)C1N , what viability, T/C was observed with KRAS patient-derived spheroids with HUVEC/MSC, viability?
// result 44%

// query For KRAS patient-derived spheroids with HUVEC/MSC, viability, provide viability, T/C of CC1(C)CCC(CN2CCN(c3ccc(C(=O)NS(=O)(=O)c4ccc(NCC5CCOCC5)c([N+](=O)[O-])c4)c(Oc4cnc5[nH]ccc5c4)c3)CC2)=C(c2ccc(Cl)cc2)C1 + CNCc1ccccc1-c1csc(C(C)Nc2nc(C)nc3cc(OC)c(OC)cc23)c1 please.
// result 31.7%

// query // lookup viability, T/C | system=KRAS patient-derived spheroids with HUVEC/MSC, viability | key= COc1cc(Nc2ncc3c(n2)-c2ccc(Cl)cc2C(c2c(F)cccc2OC)=NC3)ccc1C(=O)O + C=CC(=O)N1CCN(c2nc(=O)n(-c3c(C)ccnc3C(C)C)c3nc(-c4c(O)cccc4F)c(F)cc23)C(C)C1
// result 27.4%

// query // lookup viability, T/C | system=KRAS patient-derived spheroids with HUVEC/MSC, viability | key= Cn1ncnc1[C@H]1c2n[nH]c(=O)c3cc(F)cc(c23)N[C@@H]1c1ccc(F)cc1 + C=CC(=O)N1CCN(c2nc(=O)n(-c3c(C)ccnc3C(C)C)c3nc(-c4c(O)cccc4F)c(F)cc23)C(C)C1
// result 15.2%

// query # get_value(readout= viability, T/C, system= KRAS patient-derived spheroids with HUVEC/MSC, viability) for Cn1ncnc1[C@H]1c2n[nH]c(=O)c3cc(F)cc(c23)N[C@@H]1c1ccc(F)cc1 + C=CC(=O)N1CCN(c2nc(OCC3CCCN3C)nc3c2CCN(c2cccc4cccc(C)c24)C3)CC1CC#N
// result 14.2%

// query Param readout= viability, T/C; system= KRAS patient-derived spheroids with HUVEC/MSC, viability; entry= CN(C)C/C=C/C(=O)Nc1cc2c(Nc3ccc(F)c(Cl)c3)ncnc2cc1O[C@H]1CCOC1 + C=CC(=O)N1CCN(c2nc(=O)n(-c3c(C)ccnc3C(C)C)c3nc(-c4c(O)cccc4F)c(F)cc23)C(C)C1 ; returns value.
// result 15.9%

// query API: value(readout=viability, T/C, system=KRAS patient-derived spheroids with HUVEC/MSC, viability) for record CCNC(=O)CC1N=C(c2ccc(Cl)cc2)c2cc(OC)ccc2-n2c(C)nnc21 (centres undefined) + C=CC(=O)N1CCN(c2nc(=O)n(-c3c(C)ccnc3C(C)C)c3nc(-c4c(O)cccc4F)c(F)cc23)C(C)C1
// result 28.7%

// query Under KRAS patient-derived spheroids with HUVEC/MSC, viability: viability, T/C value of O=C(c1cc(Cc2n[nH]c(=O)c3ccccc23)ccc1F)N1CCN(C(=O)C2CC2)CC1 + C=CC(=O)N1CCN(c2nc(OCC3CCCN3C)nc3c2CCN(c2cccc4cccc(C)c24)C3)CC1CC#N ?
// result 36.2%

// query Can you look up viability, T/C on KRAS patient-derived spheroids with HUVEC/MSC, viability for COC(=O)c1ccc2c(C(=Nc3ccc(N(C)C(=O)CN4CCN(C)CC4)cc3)c3ccccc3)c(O)[nH]c2c1 + COc1cc2nc(C)nc(NC(C)c3cc(N)cc(C(F)(F)F)c3)c2cc1OC1CCOC1 ?
// result 40.9%

// query Look up viability, T/C with KRAS patient-derived spheroids with HUVEC/MSC, viability for this compound: COc1cc(Nc2ncc3c(n2)-c2ccc(Cl)cc2C(c2c(F)cccc2OC)=NC3)ccc1C(=O)O + CC1OCC2(CCN(c3cnc(Sc4ccnc(N)c4Cl)c(N)n3)CC2)C1N
// result 33.4%

// query Tell me reported viability, T/C for CCN1CCN(Cc2ccc(Nc3ncc(F)c(-c4cc(F)c5nc(C)n(C(C)C)c5c4)n3)nc2)CC1 + C=CC(=O)N1CCN(c2nc(OCC3CCCN3C)nc3c2CCN(c2cccc4cccc(C)c24)C3)CC1CC#N , tested with KRAS patient-derived spheroids with HUVEC/MSC, viability.
// result 18.4%

// query Record CC(=O)OC12COC1CC(O)C1(C)C(=O)C(O)C3=C(C)C(OC(=O)C(O)C(NC(=O)OC(C)(C)C)c4ccccc4)CC(O)(C(OC(=O)c4ccccc4)C21)C3(C)C (centres undefined) + C=CC(=O)N1CCN(c2nc(OCC3CCCN3C)nc3c2CCN(c2cccc4cccc(C)c24)C3)CC1CC#N : what is its viability, T/C with KRAS patient-derived spheroids with HUVEC/MSC, viability?
// result 21.1%

// query KRAS patient-derived spheroids with HUVEC/MSC, viability / viability, T/C / CCNC(=O)CC1N=C(c2ccc(Cl)cc2)c2cc(OC)ccc2-n2c(C)nnc21 (centres undefined) + CNCc1ccccc1-c1csc(C(C)Nc2nc(C)nc3cc(OC)c(OC)cc23)c1 : value?
// result 27.2%

// query Can you look up viability, T/C on KRAS patient-derived spheroids with HUVEC/MSC, viability for Cn1ncnc1[C@H]1c2n[nH]c(=O)c3cc(F)cc(c23)N[C@@H]1c1ccc(F)cc1 + COc1cc2nc(C)nc(NC(C)c3cc(N)cc(C(F)(F)F)c3)c2cc1OC1CCOC1 ?
// result 28.7%

// query // lookup viability, T/C | system=KRAS patient-derived spheroids with HUVEC/MSC, viability | key= CCN1CCN(Cc2ccc(Nc3ncc(F)c(-c4cc(F)c5nc(C)n(C(C)C)c5c4)n3)nc2)CC1 + COc1cc2nc(C)nc(NC(C)c3cc(N)cc(C(F)(F)F)c3)c2cc1OC1CCOC1
// result 27.7%

// query Hi! What's the reported viability, T/C for CC1(C)CCC(CN2CCN(c3ccc(C(=O)NS(=O)(=O)c4ccc(NCC5CCOCC5)c([N+](=O)[O-])c4)c(Oc4cnc5[nH]ccc5c4)c3)CC2)=C(c2ccc(Cl)cc2)C1 + C=CC(=O)N1CCN(c2nc(OCC3CCCN3C)nc3c2CCN(c2cccc4cccc(C)c24)C3)CC1CC#N on KRAS patient-derived spheroids with HUVEC/MSC, viability?
// result 21.4%

// query What reported viability, T/C corresponds to O=C(c1cc(Cc2n[nH]c(=O)c3ccccc23)ccc1F)N1CCN(C(=O)C2CC2)CC1 + C=CC(=O)N1CCN(c2nc(=O)n(-c3c(C)ccnc3C(C)C)c3nc(-c4c(O)cccc4F)c(F)cc23)C(C)C1 on KRAS patient-derived spheroids with HUVEC/MSC, viability?
// result 34.4%

// query Request: viability, T/C, test system KRAS patient-derived spheroids with HUVEC/MSC, viability, entry CC(=O)OC12COC1CC(O)C1(C)C(=O)C(O)C3=C(C)C(OC(=O)C(O)C(NC(=O)OC(C)(C)C)c4ccccc4)CC(O)(C(OC(=O)c4ccccc4)C21)C3(C)C (centres undefined) + COc1cc2nc(C)nc(NC(C)c3cc(N)cc(C(F)(F)F)c3)c2cc1OC1CCOC1
// result 49.6%

// query Recall the recorded viability, T/C for COc1cc(Nc2ncc3c(n2)-c2ccc(Cl)cc2C(c2c(F)cccc2OC)=NC3)ccc1C(=O)O + COc1cc2nc(C)nc(NC(C)c3cc(N)cc(C(F)(F)F)c3)c2cc1OC1CCOC1 with KRAS patient-derived spheroids with HUVEC/MSC, viability and state it.
// result 38%
